Measured AUC(0-t) at 8 h accompanies every entry in the list below.
test: AUC (0 to 8 hrs) in Sprague-Dawley rat at 25 mg/kg, po administered as single dose via gavage by LC-MS/MS method; type: ADME, organism-based; design: time < 8 hr, dose 25 mg/kg, route oral; conditions: in vivo
Please answer using the number first and the unit second.

CCN(CC)CC.Nc1ncnc2c1ncn2[C@@H]1O[C@H](CNS(=O)(=O)c2n[nH]c3cc(F)ccc3c2=O)[C@@H](O)[C@H]1O :: 967 ng·h/mL

Proceeding to the next molecule to report its AUC(0-t) at 8 h.
Exercise: Give recorded AUC(0-t) at 8 h. Nc1ncnc2c1ncn2[C@@H]1O[C@H](COS(=O)(=O)NC(=O)c2ccccc2O)[C@@H](O)[C@H]1O
Key: 1100 ng·h/mL

====

Measured Ki accompanies every entry in the list below.
molecular target: Salicyl-AMP ligase / salicyl-S-ArCP synthetase (Mycobacterium tuberculosis, UniProt P71716); assay: Inhibition of Mycobacterium tuberculosis recombinant salicylate ligase MbtA expressed in Escherichia coli using salicylic acid as substrate after 20 mins by [32P]PPi-ATP exchange based scintillation counting analysis; conditions: read-out: Ki(app)
Sequence (P71716 whole entry): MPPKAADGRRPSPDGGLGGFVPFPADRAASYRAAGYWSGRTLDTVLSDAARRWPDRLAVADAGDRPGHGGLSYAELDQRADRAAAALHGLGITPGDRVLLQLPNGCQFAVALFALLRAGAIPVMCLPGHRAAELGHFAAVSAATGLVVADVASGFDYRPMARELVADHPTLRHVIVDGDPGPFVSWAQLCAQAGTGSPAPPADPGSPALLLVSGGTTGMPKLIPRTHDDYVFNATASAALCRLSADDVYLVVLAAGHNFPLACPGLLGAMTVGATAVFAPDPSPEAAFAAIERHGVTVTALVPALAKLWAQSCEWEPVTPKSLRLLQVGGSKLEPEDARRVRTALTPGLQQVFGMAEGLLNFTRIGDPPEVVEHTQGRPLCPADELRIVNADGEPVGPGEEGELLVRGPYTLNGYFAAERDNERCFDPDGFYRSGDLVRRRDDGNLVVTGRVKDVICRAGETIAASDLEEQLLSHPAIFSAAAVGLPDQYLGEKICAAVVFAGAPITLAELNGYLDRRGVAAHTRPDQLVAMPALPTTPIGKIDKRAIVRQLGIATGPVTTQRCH
Enter your answer as a number in nM; do not include the unit.

Some solved cases for reference:
Nc1ncnc2c1ncn2[C@@H]1O[C@H](CNS(=O)(=O)c2n[nH]c3ccc(F)cc3c2=O)[C@@H](O)[C@H]1O :: 20.9
Nc1ncnc2c1ncn2[C@@H]1O[C@H](CNS(=O)(=O)c2n[nH]c3cc(F)c(F)cc3c2=O)[C@@H](O)[C@H]1O :: 14

Exercise: Give recorded Ki. Nc1ncnc2c1ncn2[C@@H]1O[C@H](CNS(=O)(=O)c2n[nH]c3ccccc3c2=O)[C@@H](O)[C@H]1O
Key: 14.4

Exercise: Give recorded Ki. Nc1ncnc2c1ncn2[C@@H]1O[C@H](CNS(=O)(=O)c2c[nH]c3ccccc3c2=O)[C@@H](O)[C@H]1O
Key: 120

Exercise: Give recorded Ki. CCN(CC)CC.Nc1ncnc2c1ncn2[C@@H]1O[C@H](CNS(=O)(=O)c2n[nH]c3cc(F)ccc3c2=O)[C@@H](O)[C@H]1O
Key: 11.6

====

assay: AUC (0 to 8 hrs) in Sprague-Dawley rat at 2.5 mg/kg, iv administered as single dose via bolus injection by LC-MS/MS method; type: ADME, organism-based; parameters: time < 8 hr, dose 2.5 mg/kg, route intravenous; details: in vivo
Measured AUC(0-t) at 8 h accompanies every entry in the list below.
Enter your answer as a number in ng·h/mL; do not include the unit.

Nc1ncnc2c1ncn2[C@@H]1O[C@H](COS(=O)(=O)NC(=O)c2ccccc2O)[C@@H](O)[C@H]1O :: 8650

Exercise: Give recorded AUC(0-t) at 8 h. CCN(CC)CC.Nc1ncnc2c1ncn2[C@@H]1O[C@H](CNS(=O)(=O)c2n[nH]c3cc(F)ccc3c2=O)[C@@H](O)[C@H]1O
Key: 4630

====

test: Elimination half life in Sprague-Dawley rat at 2.5 mg/kg, iv administered as single dose via bolus injection by LC-MS/MS method; assay type: ADME, organism-based; details: in vivo, read-out: beta t1/2
Measured half-life accompanies every entry in the list below.
Enter your answer as a number in min; do not include the unit.

Nc1ncnc2c1ncn2[C@@H]1O[C@H](COS(=O)(=O)NC(=O)c2ccccc2O)[C@@H](O)[C@H]1O :: 11

Proceeding to the next compound to report its half-life.
Exercise: Give recorded half-life. CCN(CC)CC.Nc1ncnc2c1ncn2[C@@H]1O[C@H](CNS(=O)(=O)c2n[nH]c3cc(F)ccc3c2=O)[C@@H](O)[C@H]1O
Key: 40

Hello, the source for this data is ChEMBL document CHEMBL4145560, in case you need it.
